- tgt: hAM1R (human, UniProt Q16602)
- method_description: cell-based or functional assay
Numbered stars: 1 amine (or outer) side, 2 acyl side, 3 side chain; on linkers, the order of the positions; unused ones are H or OH. Bridge positions count the residues as written; N and C are the ends. Square brackets hold non-standard residues; d marks the D form. Ends that are not written are not given here. * marks the point of attachment. C20 diacid = O=C(O)CCCCCCCCCCCCCCCCCCC(=O)*; γGlu = O=C(O)[C@H](CCC(=O)[*:2])N[*:1]; Hyp = O=C(O)[C@@H]1C[C@@H](O)CN1; Cit = NC(=O)NCCC[C@H](N)C(=O)O
Assignment: determine reported hAM1R EC50 (cAMP) for the given binders.

Can you share its hAM1R EC50 (cAMP)? I mean this binder: KCNTSTCTVARLADQITQFSDKDKANVSPPTEVGPNS[Hyp]-NH2 (disulfide 2-7 (inferred); ends not checked) [SEQ ID NO: 15]
> 5 µM

# lookup: hAM1R EC50 (cAMP) of GCRFGTCTVQRLAHQIYQFTDKDKDNVAPRSKVSPNG[Hyp]-NH2 (disulfide 2-7 (inferred); ends not checked) [SEQ ID NO: 175]
2.98 µM

So what does the record say about hAM1R EC50 (cAMP) for KCNTATCTVQRLAHQIYQFTDKDKDNVPPTNVGSNG[Hyp]-NH2 (disulfide 2-7 (inferred); not fully specified; ends not checked) [SEQ ID NO: 30] ?
> 5 µM

What measured hAM1R EC50 (cAMP) goes with GCRTGTCTVQWLAHQIYQFTDKDKDNVAPRTNVGPQGY [SEQ ID NO: 335] ?
> 5 µM

Given the binder GCRFGTCTVQRLAHQIYQFTDKDKDNVAPRTKIGPNG[Hyp]-NH2 (disulfide 2-7 (inferred); ends not checked) [SEQ ID NO: 124] , what is its reported hAM1R EC50 (cAMP)?
0.0348 µM

I am curious: what hAM1R EC50 (cAMP) value has been reported for {C20 diacid-γGlu}-KCNTATCTVQRLAHQIAQFTDKDKDNVAPPTNVGSNG[Hyp]-NH2 (disulfide 2-7 (inferred); not fully specified; ends not checked) [SEQ ID NO: 61] ?
> 5 µM

// returns reported hAM1R EC50 (cAMP) for input GCRTGTCTVQ[Cit]LAHQIYQFTDKDKDNVAPRTNIGPQG[Hyp]-NH2 (disulfide 2-7 (inferred); ends not checked) [SEQ ID NO: 280]
> 5 µM

Could you tell me which hAM1R EC50 (cAMP) is on file for GCRFGTCTVQRLAHQIYQFTDKDKDNVAPRTNVGPQG[Hyp]-NH2 (disulfide 2-7 (inferred); ends not checked) [SEQ ID NO: 70] ?
2.98 µM

Request the reported hAM1R EC50 (cAMP) associated with GCRTGTCTVQWLAHQIYQFTDKDKDNVAPRTNVGPNGY [SEQ ID NO: 332]
> 5 µM
